Where these numbers come from: ChEMBL document CHEMBL3433997

Target: Solute carrier family 2, facilitated glucose transporter member 1 (Homo sapiens) (UniProt P11166)
Sequence (P11166 whole entry): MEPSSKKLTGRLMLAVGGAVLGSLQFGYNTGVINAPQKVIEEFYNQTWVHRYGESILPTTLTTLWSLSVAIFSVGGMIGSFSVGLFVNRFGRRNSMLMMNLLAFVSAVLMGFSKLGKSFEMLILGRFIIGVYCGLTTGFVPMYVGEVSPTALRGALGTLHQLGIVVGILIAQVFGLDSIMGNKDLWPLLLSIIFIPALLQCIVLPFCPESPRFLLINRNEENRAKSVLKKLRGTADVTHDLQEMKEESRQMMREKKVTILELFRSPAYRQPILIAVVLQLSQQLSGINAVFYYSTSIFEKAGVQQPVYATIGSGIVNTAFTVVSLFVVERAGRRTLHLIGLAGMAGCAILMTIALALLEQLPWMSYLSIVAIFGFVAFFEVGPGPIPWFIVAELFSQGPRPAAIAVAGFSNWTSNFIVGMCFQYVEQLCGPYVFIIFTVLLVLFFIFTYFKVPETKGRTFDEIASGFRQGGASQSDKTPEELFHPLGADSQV
Experiment: ST_JUDE_LEISH: Cytotoxicity at 2uM final concentration against transgenic Leishmania Mexicana promastigotes LmGLUT1 that are glucose transport deficient and complemented with the human glucose transporter GLUT1. Activity is measured by DNA content using SYBR green in vitro
Format: functional
The reader will find reported inhibition values listed item by item below.
MEASURED_PARAMETER: inhibition (%)

COc1cc2nc(NCCCOC(C)C)n3nc(-c4ccccc4)nc3c2cc1OC: 11.4
CC(C)CC(NC(=O)c1cccc(OCCN2CCOCC2)c1)C(=O)NC(/C=N/NC(=O)c1ccccc1)CCc1ccccc1 (centres undefined): 7.09
O=C(Nc1cccc(-c2nn3ncccc3c2-c2ccnc(Nc3ccccc3)n2)c1)c1c(F)cccc1F: 3.26
O=C(NCc1ccc(C(=O)N2CCC(N3CCCCC3)CC2)cc1)c1cc(-c2cccc(C(F)(F)F)c2)ccc1O: 7.73
